molecular target: GST-TIE2 (intracellular domains of human TIE2) (Homo sapiens); construct: made in house; assay: TIE-2 enzyme assay (TIE2-E), LANCE method; format: biochemical; conditions: 80 uM ATP
Below, each entry is listed alongside its reported IC50.

Solved entries (count: 6):
COCC(=O)Nc1nc2cc(Oc3ccc(NC(=O)Nc4cc(C(F)(F)F)ccc4F)cc3)ccc2[nH]1	< 100 nM
COC(=O)Nc1nc2ccc(Sc3ccc(NC(=O)Nc4cc([N+](=O)[O-])ccc4C)cc3)cc2[nH]1	< 100 nM
O=C(Nc1ccc(Oc2ccc3nc(NC(=O)c4ccc(-n5cccc5)cc4)[nH]c3c2)cc1)Nc1cc(C(F)(F)F)ccc1F	< 100 nM
COC(=O)Nc1nc2ccc(Oc3ccc(NC(=S)Nc4cccc(C(F)(F)F)c4)cc3)cc2[nH]1	1000 to 10000 nM
O=C(Nc1ccc(Oc2ccc3[nH]c(NC(=O)C4CCCO4)nc3c2)cc1)Nc1cc(C(F)(F)F)ccc1F (stereo not shown)	< 100 nM
COC(=O)Nc1nc2ccc(Oc3ccc(NC(=O)Nc4cc(C(F)(F)F)ccc4Cl)cc3)cc2s1	< 100 nM

Now let's try a different one.
Ask: Given "COC(=O)Nc1nc2cc(S(=O)(=O)c3ccc(NC(=O)Nc4cc(C(F)(F)F)ccc4F)cc3)ccc2[nH]1" , report its IC50 on GST-TIE2 (intracellular domains of human TIE2) (Homo sapiens).
Result: 100 to 1000 nM

---

molecular target: GST-TIE2 (intracellular domains of human TIE2) (Homo sapiens, UniProt Q02763); test: TIE-2 enzyme assay (TIE2-E), LANCE method; conditions: 80 uM ATP
Sequence (Q02763 762-1104): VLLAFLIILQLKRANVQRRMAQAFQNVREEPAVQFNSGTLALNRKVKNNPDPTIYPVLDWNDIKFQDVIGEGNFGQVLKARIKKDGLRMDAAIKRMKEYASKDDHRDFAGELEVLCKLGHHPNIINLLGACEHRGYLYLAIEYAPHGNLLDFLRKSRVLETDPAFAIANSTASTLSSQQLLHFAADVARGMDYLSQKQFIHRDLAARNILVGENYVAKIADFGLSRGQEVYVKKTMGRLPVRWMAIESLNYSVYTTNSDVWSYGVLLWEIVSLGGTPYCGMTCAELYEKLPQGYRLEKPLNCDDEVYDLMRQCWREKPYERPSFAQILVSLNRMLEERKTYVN
Where a name gives a salt, the structure may show the parent alone.
// values below are reported IC50

The cases that follow already have their IC50 on record.
CC(=O)Nc1nc2cc(Oc3ccc(NC(=O)Nc4cc(C(F)(F)F)ccc4F)nc3)ccc2[nH]1 [Example 36, dihydrochloride]	< 100 nM
O=C(Nc1ccc(Oc2ccc3[nH]c(NC(=O)c4ccccc4)nc3c2)cc1)Nc1cc(C(F)(F)F)ccc1F [Example 99]	< 100 nM
COC(=O)Nc1nc2cc(Oc3ccc(NC(=O)Nc4cccc(C(F)(F)F)c4)cn3)ccc2[nH]1 [Example 38]	< 100 nM

Ask: Fill in IC50 for COC(=O)Nc1nc2nc(Oc3ccc(NC(=O)Nc4cc(C(F)(F)F)ccc4F)cc3)ccc2[nH]1 [Example 69, dihydrochloride] tested with GST-TIE2 (intracellular domains of human TIE2) (Homo sapiens, UniProt Q02763).
Result: < 100 nM

---

Overview of recorded pIC50 for various molecules
Biological target: GST-TIE2 (intracellular domains of human TIE2) (Homo sapiens, UniProt Q02763)
Assay: TIE-2 enzyme assay (TIE2-E), LANCE method
Settings: 80 uM ATP
Experimental: TIE-2Enzyme Assay (TIE2-E) The TIE-2 enzyme assay used the LANCE method (Wallac) and GST-TIE2, baculovirus expressed recombinant constructs of the intracellular domains of human TIE2 (amino acids 762–1104, GenBank Accession # L06139) tagged by GST). […] This peptide phosphorylation was detected using the following procedure: for enzyme preactivation, GST-TIE2 was incubated for 30 mins at room temperature with 2 mM ATP, 5 mM MgCl2 and 12.5 mM DTT in 22.5 mM HEPES buffer (pH7.4). […]
pIC50: −log10 of the molar value. Where a name gives a salt, the structure may show the parent alone.

Answered cases to consult:
CC(C)(C)OC(=O)NCC(=O)Nc1nc2cc(Oc3ccc(NC(=O)Nc4cc(C(F)(F)F)ccc4F)cc3)ccc2[nH]1	> 7.00
CN1CCN(CCCNc2nc3ccc(Oc4ccc(NC(=O)Nc5cc(C(F)(F)F)ccc5F)cc4)cc3[nH]2)CC1	6.00 to 7.00
COC(=O)Nc1nc2cc(Oc3ccc(NC(=O)Nc4cc(C(F)(F)F)ccc4Cl)cn3)ccc2[nH]1	> 7.00
COC(=O)Nc1nc2ccc(Oc3cccc(NC(=O)Nc4cc(C(F)(F)F)ccc4Cl)c3)cc2[nH]1 [Example 52, hydrochloride]	> 7.00
COC(=O)Nc1nc2ccc(Sc3ccc(NC(=O)Nc4cc([N+](=O)[O-])ccc4F)cc3)cc2[nH]1	> 7.00
CN(C)CCOC(=O)Nc1nc2cc(Oc3ccc(NC(=O)Nc4cc(C(F)(F)F)ccc4F)cc3)ccc2[nH]1	> 7.00

Ask: Specify reported pIC50 for the molecule shown: COC(=O)Nc1nc2cc(Oc3ccc(NC(=O)Nc4cc(Cl)ccc4Cl)cn3)ccc2[nH]1 [Example 112, dihydrochloride]
Result: 6.00 to 7.00

Ask: Consider the molecule "COC(=O)Nc1nc2ccc(Sc3ccc(NC(=O)Nc4cccc(Br)c4)cc3)cc2[nH]1" . State its measured pIC50.
Result: > 7.00

Ask: Fill in reported pIC50 for this entry: "O=C(O)CCC(=O)Nc1nc2cc(Oc3ccc(NC(=O)Nc4cc(C(F)(F)F)ccc4F)cc3)ccc2[nH]1"
Result: > 7.00

# credit: patent US7238813B2
